- System: NCI-H2342
- Test: relative viability (nuclei count vs DMSO), 5 days (fraction); higher = more cells survive
- Experimental Conditions: first compound 0.8 µM

>  <Compound>
C=C1C(=O)O[C@@H](CCCCCCCC)[C@@H]1C(=O)O [C-75] + Nc1nc2[nH]cc(CCc3ccc(C(=O)N[C@@H](CCC(=O)O)C(=O)O)cc3)c2c(=O)[nH]1 [Pemetrexed] (partner 0.2 µM)

>  <relative viability>
0.693

$$$$
>  <Compound>
Oc1nc(-c2ccc(C(F)(F)F)cc2)nc2c1CSCC2 [XAV939] + COc1cc2c(Oc3ccc(NC(=O)C4(C(=O)Nc5ccc(F)cc5)CC4)cc3F)ccnc2cc1OCCCN1CCOCC1 [Foretinib] (partner 0.25 µM)

>  <relative viability>
0.932

$$$$
>  <Compound>
C=C1C(=O)O[C@@H](CCCCCCCC)[C@@H]1C(=O)O [C-75] + N=C(N)NC(=N)NCCc1ccccc1 [Phenformin] (partner 250 µM)

>  <relative viability>
0.664

$$$$
>  <Compound>
Oc1nc(-c2ccc(C(F)(F)F)cc2)nc2c1CSCC2 [XAV939] + CC(=O)Nc1cccc(-n2c(=O)n(C3CC3)c(=O)c3c(Nc4ccc(I)cc4F)n(C)c(=O)c(C)c32)c1 [Trametinib] (partner 0.02 µM)

>  <relative viability>
0.717

$$$$
>  <Compound>
Oc1nc(-c2ccc(C(F)(F)F)cc2)nc2c1CSCC2 [XAV939] + N=C(N)NC(=N)NCCc1ccccc1 [Phenformin] (partner 250 µM)

>  <relative viability>
0.552

$$$$
>  <Compound>
Oc1nc(-c2ccc(C(F)(F)F)cc2)nc2c1CSCC2 [XAV939] + Nc1nc2[nH]cc(CCc3ccc(C(=O)N[C@@H](CCC(=O)O)C(=O)O)cc3)c2c(=O)[nH]1 [Pemetrexed] (partner 0.2 µM)

>  <relative viability>
0.719

$$$$
>  <Compound>
Oc1nc(-c2ccc(C(F)(F)F)cc2)nc2c1CSCC2 [XAV939] + Nc1ncn([C@H]2C[C@H](O)[C@@H](CO)O2)c(=O)n1 [Decitabine] (partner 2 µM)

>  <relative viability>
0.72

$$$$
>  <Compound>
C=C1C(=O)O[C@@H](CCCCCCCC)[C@@H]1C(=O)O [C-75] + COc1cccc2cc(-c3nc([C@H]4CC[C@H](C(=O)O)CC4)n4ncnc(N)c34)[nH]c12 [OSI-027] (partner 0.5 µM)

>  <relative viability>
0.582

$$$$
